These entries and their values trace back to paper PMC7177888.

biological target: CA VII (Homo sapiens, UniProt P43166); construct: gene CA7; recombinant, obtained in-house; assay: stopped-flow CO2 hydrase assay; format: biochemical
Sequence (P43166 whole entry): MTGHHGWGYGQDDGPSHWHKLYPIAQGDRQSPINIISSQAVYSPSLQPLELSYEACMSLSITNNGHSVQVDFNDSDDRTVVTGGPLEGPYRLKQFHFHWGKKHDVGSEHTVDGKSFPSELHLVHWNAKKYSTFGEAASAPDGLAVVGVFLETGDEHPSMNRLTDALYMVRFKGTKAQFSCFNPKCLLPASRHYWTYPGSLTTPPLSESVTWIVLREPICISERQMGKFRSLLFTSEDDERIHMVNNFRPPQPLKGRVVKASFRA
Hi! Just check whether Ki is below 4 nM. Below gives Satisfied, equal or above gives Not satisfied.

Illustrative cases are given below, each with its answer.
NS(=O)(=O)c1ccc(NC(=O)N2N=C(c3ccc(Br)cc3)CC2c2ccc(F)cc2)cc1 (centres unmarked) [compound 25]
Satisfied
NS(=O)(=O)c1ccc(NC(=O)N2N=C(c3ccccc3)CC2c2ccc(Cl)cc2)cc1 (centres unmarked) [compound 6]
Not satisfied
Cc1ccc(C2CC(c3ccc(Cl)cc3)=NN2C(=O)Nc2ccc(S(N)(=O)=O)cc2)cc1 (centres unmarked) [compound 13]
Not satisfied
NS(=O)(=O)c1ccc(NC(=O)N2N=C(c3ccc(Cl)cc3)CC2c2ccccc2Cl)cc1 (centres unmarked) [compound 16]
Not satisfied
NS(=O)(=O)c1ccc(NC(=O)N2N=C(c3ccc(Cl)cc3)CC2c2c(F)cccc2Cl)cc1 (centres unmarked) [compound 19]
Satisfied

Query: Given the entry NS(=O)(=O)c1ccc(NC(=O)N2N=C(c3ccccc3)CC2c2c3ccccc3cc3ccccc23)cc1 (centres unmarked) [compound 10] , would its reported Ki be below 4 nM?
Response: Satisfied

Query: Also, COc1ccc(C2CC(c3ccc(Cl)cc3)=NN2C(=O)Nc2ccc(S(N)(=O)=O)cc2)cc1 (centres unmarked) [compound 21] please.
Response: Satisfied

Query: What would you report for NS(=O)(=O)c1ccc(NC(=O)N2N=C(c3ccccc3)CC2c2ccc(Cl)cc2Cl)cc1 (centres unmarked) [compound 11] ?
Response: Satisfied
